target: furin, P09958; assay: furin cleavage Z-score vs untreated control; higher = more cleavage, active = 3.5 or more, inactive = 1 or less, 8 variable residues between constant flanks; conditions: 15 min;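 note: purified furin at 1:10 enzyme:substrate in 50 mM HEPES pH 7.5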
Sequence (P09958 whole entry): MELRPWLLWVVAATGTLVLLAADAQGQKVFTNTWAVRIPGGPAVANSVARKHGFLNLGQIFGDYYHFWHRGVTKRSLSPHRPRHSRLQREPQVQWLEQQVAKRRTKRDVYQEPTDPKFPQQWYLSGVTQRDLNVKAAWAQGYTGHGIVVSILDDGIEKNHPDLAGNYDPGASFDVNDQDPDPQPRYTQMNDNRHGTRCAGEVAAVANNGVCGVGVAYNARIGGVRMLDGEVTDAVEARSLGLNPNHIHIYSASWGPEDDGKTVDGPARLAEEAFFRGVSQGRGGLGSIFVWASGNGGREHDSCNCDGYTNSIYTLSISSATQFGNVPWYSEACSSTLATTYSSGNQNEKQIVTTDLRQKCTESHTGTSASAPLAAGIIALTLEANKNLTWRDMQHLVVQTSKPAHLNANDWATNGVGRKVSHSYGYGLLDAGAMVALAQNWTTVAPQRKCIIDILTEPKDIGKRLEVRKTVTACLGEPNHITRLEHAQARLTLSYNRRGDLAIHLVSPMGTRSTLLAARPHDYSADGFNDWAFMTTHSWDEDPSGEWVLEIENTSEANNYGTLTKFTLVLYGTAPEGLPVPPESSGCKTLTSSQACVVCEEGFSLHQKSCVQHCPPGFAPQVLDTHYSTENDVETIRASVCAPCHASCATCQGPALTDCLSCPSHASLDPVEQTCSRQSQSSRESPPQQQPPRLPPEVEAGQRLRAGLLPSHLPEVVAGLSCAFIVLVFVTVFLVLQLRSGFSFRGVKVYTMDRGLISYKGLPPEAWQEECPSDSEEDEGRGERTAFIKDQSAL
The list shows a part of the results. The hit rate among all sequences tested is not known here.
Let's look at some sequences and their measured furin cleavage Z-score.
Output: the number by itself.

Could you share which furin cleavage Z-score value was measured for CALPAPNYTFAGNASASA [HC1197] ?
-0.15

Further cases:
Could you share which furin cleavage Z-score value was measured for CALLCRHKRKAGNASASA [FS-1359] ?
9.24

Could you share which furin cleavage Z-score value was measured for CALPQDAVSRAGNASASA [HC899] ?
-0.97

Could you share which furin cleavage Z-score value was measured for CADAMEECSQAGNASASA [HC1803] ?
0.113

Could you share which furin cleavage Z-score value was measured for CALPARDKRKAGNASASA [FS-356] ?
4.69

Could you share which furin cleavage Z-score value was measured for CAIEFRHKRKAGNASASA [FS-1535] ?
1.39

Could you share which furin cleavage Z-score value was measured for CAHAWRSRRSAGNASASA [FS-1629] ?
8.73

Could you share which furin cleavage Z-score value was measured for CARRQVWKRRAGNASASA [FS-1161] ?
4.58

Could you share which furin cleavage Z-score value was measured for CAREPRLVGGAGNASASA [FS-2136] ?
-0.28

Could you share which furin cleavage Z-score value was measured for CAQLEVVTSTAGNASASA [HC2282] ?
1.61

Could you share which furin cleavage Z-score value was measured for CARRIRFVGRAGNASASA [FS-3261] ?
1.15

Could you share which furin cleavage Z-score value was measured for CALSIRDKRKAGNASASA [FS-136] ?
3.15

Could you share which furin cleavage Z-score value was measured for CALPQRLPRAAGNASASA [FS-1363] ?
7.22

Could you share which furin cleavage Z-score value was measured for CALSIRDARMAGNASASA [FS-1466] ?
0.981

Could you share which furin cleavage Z-score value was measured for CAIPARMKRAAGNASASA [FS-599] ?
9.08
